TGI reference
Tested on: SF-539 CNS
Test: NCI tumour cell line growth inhibition, 48 h

Example results:
[
  {
    "MOLECULE": "CC(=O)c1sc(=N)n(-c2c(C)cccc2C)c1C",
    "TARGET ENTITY": "SF-539 CNS",
    "TGI": "> 100 µM"
  },
  {
    "MOLECULE": "O=c1oc2ccc([N+](=O)[O-])cc2c(Nc2ccc3c(c2)S(=O)(=O)c2ccccc2O3)c1[N+](=O)[O-]",
    "TARGET ENTITY": "SF-539 CNS",
    "TGI": "> 100 µM"
  }
]

Exercise: Look at this molecule and give its reported TGI. O=C1C2Nc3ccccc3SC2C(=O)N1c1ccccc1C(F)(F)F (stereo unspecified)
Key: 41 µM

Exercise: Look at this molecule and give its reported TGI. `COC(=O)[C@@H](C)C[C@H](Cc1ccccc1)NC(=O)c1csc([C@@H](C[C@H](C(C)C)N(C)C(=O)[C@H](C)NC(=O)[C@H]2CCCCN2C)OC(C)=O)n1`
Key: 20.6 µM

Exercise: Look at this molecule and give its reported TGI. `O=C(O)/C=C/C(=O)N1C/C(=C\c2ccccc2)C(=O)/C(=C/c2ccccc2)C1`
Key: 26.7 µM

Exercise: Look at this molecule and give its reported TGI. `Cc1cc(-c2nc3cccc(F)c3s2)ccc1N`
Key: > 100 µM

Exercise: Look at this molecule and give its reported TGI. COC(=O)CCC(=O)NC1C2CC3CC(C2)CC1C3 (stereo unspecified)
Key: > 100 µM

---

TGI reference
Tested on: A498 renal
Assay: NCI tumour cell line growth inhibition, 48 h

[
  {
    "COMPOUND": "O=C(O)CCSC(=O)Nc1ccc(N=Nc2ccccc2)cc1",
    "TGI": "> 100 µM"
  }
]

Exercise: Look at this compound and give its reported TGI. COc1ccc(N2C(=O)CC(c3c[nH]c4ncccc34)C2=O)cc1 (centres undefined)
Key: > 100 µM

Exercise: Look at this compound and give its reported TGI. `CC(C)CCN[C@@H]1CCc2cc(O)c(N3CC(=O)NS3(=O)=O)c(F)c2C1`
Key: > 100 µM

Exercise: Look at this compound and give its reported TGI. `CC(=O)c1sc(=N)n(-c2c(C)cccc2C)c1C`
Key: > 100 µM

---

Tested on: HOP-62 NSCLC
Experiment: NCI tumour cell line growth inhibition, 48 h
MEASURED PROPERTY: TGI

Example results:
[
  {
    "MOLECULE": "CO[C@H]1CC(c2ccc[nH]2)=N[C@]12O[C@@H](C)C[C@@H]1CCCCCCCc3ccc([nH]3)[C@H]12",
    "TGI": "14.9 µM"
  },
  {
    "MOLECULE": "O=C(/C=C(\\O)c1ccccc1)c1cc(-c2ccccc2)n(-c2ccccc2)n1",
    "TGI": "23.9 µM"
  },
  {
    "MOLECULE": "N#Cc1nc(COCCOCc2ccc(F)cc2)oc1N",
    "TGI": "> 100 µM"
  },
  {
    "MOLECULE": "CCc1nc(N)nc(N)c1-c1ccc(Cl)c(N=CN(C)C)c1",
    "TGI": "> 100 µM"
  },
  {
    "MOLECULE": "Cc1c(C)c(S(=O)(=O)N(CCCCCON)OCCCN)c(C)c2c1OC(C)(C)CC2",
    "TGI": "31.8 µM"
  },
  {
    "MOLECULE": "COc1ccc(Nc2cc(C)nc(N3CCN(c4ccnc5cc(Cl)ccc45)CC3)n2)cc1",
    "TGI": "> 100 µM"
  }
]

Exercise: Look at this molecule and give its reported TGI. CC1=NN(C(=O)CC(=O)Nc2cccc(Cl)c2)C(=O)C1N=Nc1ccc(C(=O)O)cc1 (centres undefined)
Key: > 100 µM

Exercise: Look at this molecule and give its reported TGI. `CC(=O)c1cc(C)n2c1CS[C@@H]2c1ccccc1`
Key: > 100 µM

Exercise: Look at this molecule and give its reported TGI. `COc1ccc2nc(NC(=O)c3cccnc3Nc3cc(OC)c(OC)c(OC)c3)sc2c1`
Key: 22.3 µM

Exercise: Look at this molecule and give its reported TGI. `Cn1c2ccccc2c(=O)c2[nH]c3ccccc3c21`
Key: > 100 µM

Exercise: Look at this molecule and give its reported TGI. `O=C(CSC1=NNC2(C(=O)N1)c1ccccc1-c1ccccc12)NC(=S)Nc1ccccc1`
Key: > 10 µM

Exercise: Look at this molecule and give its reported TGI. O=[N+]([O-])c1ccc(Cl)cc1C1SCc2nc3ccccc3n21 (centres undefined)
Key: > 100 µM

Exercise: Look at this molecule and give its reported TGI. CC1=C(C(=O)OC(C)C)C(c2ccccc2C(F)(F)F)C(C(=O)OC(CO[N+](=O)[O-])CO[N+](=O)[O-])=C(C)N1 (centres undefined)
Key: 29.5 µM

Exercise: Look at this molecule and give its reported TGI. O=C1OC(OCC#CCOC2OC(=O)C(Cl)=C2Cl)C(Cl)=C1Cl (centres undefined)
Key: 26.7 µM

Exercise: Look at this molecule and give its reported TGI. `CN1C(Cl)=NS(=O)(=O)c2ccccc21`
Key: > 100 µM

Exercise: Look at this molecule and give its reported TGI. CCOC(OC1=C(C#N)CCCC1)C(C)[Se]c1ccccc1 (centres undefined)
Key: > 100 µM
